Test system: rat blood pressure
Assay: effects on blood pressure in the anesthetized rat (RBP), intraaortic and intravenous bolus
Type: in vivo
Settings: rat blood pressure, intraaortic bolus
Square brackets hold non-standard residues; d marks the D form. Peptide text beside a SMILES is read from it. 2Thi = N[C@@H](Cc1cccs1)C(=O)O
MEASURED_METRIC: RBP-IA: agonist potency as percent of BK potency (%)

COMPOUND	UNIT_ANNOTATION	REPORTED
CC[C@@H](C)[C@@H](NC(=O)[C@H](CCCNC(=N)N)NC(=O)[C@H](Cc1cccs1)NC(=O)[C@@H](Cc1ccccc1)NC(=O)[C@H](CO)NC(=O)[C@H](Cc1cccs1)NC(=O)CNC(=O)[C@@H]1CCCN1C(=O)[C@@H]1CCCN1C(=O)[C@@H](N)CCCNC(=N)N)C(=O)N[C@@H](Cc1ccc(O)cc1)C(=O)O [Example 71] (H-RPPG[2Thi]S[dF][2Thi]R[dI]Y-OH)	%	0.2
CC[C@@H](C)[C@@H](NC(=O)[C@H](CCCNC(=N)N)NC(=O)[C@H](Cc1ccccc1)NC(=O)[C@@H](Cc1ccccc1)NC(=O)[C@H](CO)NC(=O)[C@H](Cc1ccccc1)NC(=O)CNC(=O)[C@@H]1CCCN1C(=O)[C@@H]1CCCN1C(=O)[C@@H](N)CCCNC(=N)N)C(=O)N[C@@H](Cc1ccc(O)cc1)C(=O)O [Example 69] (H-RPPGFS[dF]FR[dI]Y-OH)	%	0.3
CC[C@H](C)[C@H](NC(=O)[C@H](CCCNC(=N)N)NC(=O)[C@H](Cc1ccccc1)NC(=O)[C@@H](Cc1ccccc1)NC(=O)[C@H](CO)NC(=O)[C@H](Cc1ccccc1)NC(=O)CNC(=O)[C@@H]1CCCN1C(=O)[C@@H]1CCCN1C(=O)[C@@H](N)CCCNC(=N)N)C(=O)N[C@@H](Cc1ccc(O)cc1)C(=O)O [Example 63] (H-RPPGFS[dF]FRIY-OH)	%	0.2

====

Tested on: rat blood pressure
Experiment: effects on blood pressure in the anesthetized rat (RBP), intraaortic and intravenous bolus
Assay type: in vivo
Settings: rat, in vivo
Square brackets hold non-standard residues; d marks the D form. Peptide text beside a SMILES is read from it. 2Thi = N[C@@H](Cc1cccs1)C(=O)O
Classify by measured % DESTR (metabolic breakdown of BK-like agonists in RBP assay): t if it is equal to or exceeds 60%, f if it is smaller.

COMPOUND	LABEL
N=C(N)NCCC[C@H](NC(=O)[C@H](Cc1cccs1)NC(=O)[C@@H](Cc1ccccc1)NC(=O)[C@H](CO)NC(=O)[C@H](Cc1cccs1)NC(=O)CNC(=O)[C@@H]1CCCN1C(=O)[C@@H]1CCCN1C(=O)[C@@H](N)CCCNC(=N)N)C(N)=O [Example 51, Arg-Pro-Pro-Gly-Thi-Ser-DPhe-Thi-Arg-NH2] (H-RPPG[2Thi]S[dF][2Thi]R-NH2)	f
N=C(N)NCCC[C@H](N)C(=O)N1CCC[C@H]1C(=O)N1CCC[C@H]1C(=O)NCC(=O)N[C@@H](Cc1cccs1)C(=O)N[C@@H](CO)C(=O)N[C@H](Cc1ccccc1)C(=O)N[C@@H](Cc1cccs1)C(=O)N[C@H](CCCNC(=N)N)C(=O)O [Example 41, Arg-Pro-Pro-Gly-Thi-Ser-DPhe-Thi-DArg] (H-RPPG[2Thi]S[dF][2Thi][dR]-OH)	t
N=C(N)NCCC[C@H](NC(=O)[C@H](CCCCN)NC(=O)[C@@H](N)CCCCN)C(=O)N1CCC[C@H]1C(=O)N1CCC[C@H]1C(=O)NCC(=O)N[C@@H](Cc1cccs1)C(=O)N[C@@H](CO)C(=O)N[C@H](Cc1ccccc1)C(=O)N[C@@H](Cc1cccs1)C(=O)N[C@H](CCCNC(=N)N)C(=O)O [Example 44] (H-KKRPPG[2Thi]S[dF][2Thi][dR]-OH)	f

====

System: rat blood pressure
Experiment: effects on blood pressure in the anesthetized rat (RBP), intraaortic and intravenous bolus
Format: in vivo
Conditions: rat blood pressure, intraaortic bolus
Square brackets hold non-standard residues; d marks the D form. Peptide text beside a SMILES is read from it. 2Thi = N[C@@H](Cc1cccs1)C(=O)O
MEASURED_METRIC: RBP-IA: agonist potency as percent of BK potency (%)

COMPOUND	UNIT_ANNOTATION	REPORTED
CC[C@H](C)[C@H](NC(=O)[C@H](CCCNC(=N)N)NC(=O)[C@H](Cc1ccccc1)NC(=O)[C@@H]1CCCN1C(=O)[C@H](CO)NC(=O)[C@H](Cc1ccccc1)NC(=O)CNC(=O)[C@@H]1CCCN1C(=O)[C@@H]1CCCN1C(=O)[C@H](CCCNC(=N)N)NC(=O)[C@H](N)CCCNC(=N)N)C(=O)N[C@@H](Cc1ccc(O)cc1)C(=O)O [Example 60] (H-[dR]RPPGFSPFRIY-OH)	%	12
CC[C@H](C)[C@H](NC(=O)[C@H](CCCNC(=N)N)NC(=O)[C@H](Cc1ccccc1)NC(=O)[C@@H]1CCCN1C(=O)[C@H](CO)NC(=O)[C@H](Cc1ccccc1)NC(=O)CNC(=O)[C@@H]1CCCN1C(=O)[C@@H]1CCCN1C(=O)[C@H](CCCNC(=N)N)NC(=O)[C@H](CCCCN)NC(=O)[C@@H](N)CCCCN)C(=O)N[C@@H](Cc1ccc(O)cc1)C(=O)O	%	9
CC[C@H](C)[C@H](NC(=O)[C@H](CCCNC(=N)N)NC(=O)[C@H](Cc1cccs1)NC(=O)[C@@H](Cc1ccccc1)NC(=O)[C@H](CO)NC(=O)[C@H](Cc1cccs1)NC(=O)CNC(=O)[C@@H]1CCCN1C(=O)[C@@H]1CCCN1C(=O)[C@@H](N)CCCNC(=N)N)C(=O)N[C@@H](Cc1ccc(O)cc1)C(=O)O [Example 65] (H-RPPG[2Thi]S[dF][2Thi]RIY-OH)	%	0.06
